System: IGROV-1
Protocol Text: NCI tumour cell line growth inhibition, 48 h
The source made the active and inactive calls. No stated cut-off is given here; in the data, active = GI50 up to about 1.1 µM and inactive = higher.
Outcome codes: active, inactive

INSERT INTO assay_data (compound, category_label) VALUES
  ('N#CCCC(CC#N)N1CCN(C(CC#N)CCC#N)CC1 (configuration not stated)', 'inactive'),
  ('CCOC(OCC)[C@H](N)[C@@H](O)[C@@H](O)[C@H]1COC(C)(C)O1', 'inactive'),
  ('CC(C)(C)OC(=O)NC(Cc1ccccc1)OCc1ccccc1 (configuration not stated)', 'inactive'),
  ('CCCCCCCCOCC(COC(=O)CCCCCCC)OC(=O)CCCCCCC (configuration not stated)', 'inactive'),
  ('CCn1c(SC(C)C(=O)c2c(C)n(C)n(-c3ccccc3)c2=O)nc2ccccc2c1=O (configuration not stated)', 'inactive'),
  ('COc1cc(/C=C\c2ccc(C)cc2)cc(OC)c1OC', 'active'),
  ('N#C/C(C(=O)Nc1ccccc1)=C(/N)N1CCOCC1', 'inactive'),
  ('COc1ccc(OC)c2c1C(=O)C(Cl)=C(Cl)C2=O', 'inactive'),
  ('Clc1nc(Cl)c(Cl)c(Cl)n1', 'inactive'),
  ('Cc1ccc2c(n1)C(=O)c1ccccc1C2=O', 'inactive'),
  ('ON=C(CC(O)(C(F)(F)Cl)C(F)(F)Cl)CC(O)(C(F)(F)Cl)C(F)(F)Cl', 'inactive'),
  ('N#CCc1nc(-c2cc3ccc(O)cc3oc2=O)cs1', 'inactive'),
  ('O=C1C=C[C@@]23CC1C(O)C[C@H]2C=Cc1ccccc13 (some centres not stated)', 'inactive'),
  ('NS(=O)(=O)c1ccc(NC(=O)Cc2nc3ccccc3s2)cc1', 'inactive'),
  ('COc1ccc(C(=O)O)c2c(=O)c3ccccc3[nH]c12', 'inactive'),
  ('CN(C)CCN(/C(=N/c1ccccc1)N1CCCC1)c1ccccc1', 'inactive'),
  ('O=C1c2ccccc2C(=O)c2c1ccc1c2N=C(c2ccc(F)cc2)CC(c2ccc(Cl)c(Cl)c2)N1 (configuration not stated)', 'inactive'),
  ('NP1(Oc2ccc(F)cc2)=NP(N)(Oc2ccc(F)cc2)=NP(Oc2ccc(F)cc2)(Oc2ccc(F)cc2)=N1 (configuration not stated)', 'inactive'),
  ('N#C/C(=C\c1ccc2ccccc2c1)C(=O)c1ccccc1', 'inactive'),
  ('Cc1c2c(cc3c1C(=O)C(O)=C([C@@H](C)CO)C3=O)C(C)(C)CCC2', 'inactive'),
  ('COC(=O)c1cc(C)ccc1/C=C1\Cc2cccc(C)c2C1=O', 'inactive'),
  ('O=C1/C(=C/C=C/c2ccccc2)N=C(c2ccccc2)N1C1Nc2cc3c(cc2S1)NC(N1C(=O)/C(=C/C=C/c2ccccc2)N=C1c1ccccc1)S3 (configuration not stated)', 'inactive');

// provenance: ChEMBL document CHEMBL1201862
